# SYSTEM_NAME: T1, TAMRA-labeled CCL25 (CCL25(1-73), norleucine 64, C-terminal azidolysine coupled to TAMRA-PEG4-DBCO)
# T1 chain: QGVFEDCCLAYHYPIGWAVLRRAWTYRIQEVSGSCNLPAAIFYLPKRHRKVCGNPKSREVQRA
# METHOD: flow cytometry on cells
# EXPERIMENTAL_SETUP: chain shown with the change; 300 nM TAMRA-CCL25; HEK293T cells; read off a plot
# ratio to parent >= 0.8 gives condition met, anything below gives condition not met

// query Item C-C chemokine receptor 9 (CCR9), wild type R44A (protein) MTPTDFTSPIPNMADDYGSESTSSMEDYVNFNFTDFYCEKNNVAQFASHFLPPLYWLVFIVGALGNSLVILVYWYCTRVKTMTDMFLLNLAIADLLFLVTLPFWAIAAADQWKFQTFMCKVVNSMYKMNFYSCVLLIMCISVDRYIAIAQAMRAHTWREKRLLYSKMVCFTIWVLAAALCIPEILYSQIKEESGIAICTMVYPSDESTKLKSAVLTLKVILGFFLPFVVMACCYTIIIHTLIQAKKSSKHKALKVTITVLTVFVLSQFPYNCILLVQTIDAYAMFISNCAVSTNIDICFQVTQTIAFFHSCLNPVLYVFVGERFRRDLVKTLKNLGCISQAQWVSFTRREGSLKLSSMLLETTSGALSL with ratio to parent of 0.8 or above?
// result condition not met

// query Threshold query (ratio to parent >= 0.8) on C-C chemokine receptor 9 (CCR9), wild type S292A (protein) MTPTDFTSPIPNMADDYGSESTSSMEDYVNFNFTDFYCEKNNVRQFASHFLPPLYWLVFIVGALGNSLVILVYWYCTRVKTMTDMFLLNLAIADLLFLVTLPFWAIAAADQWKFQTFMCKVVNSMYKMNFYSCVLLIMCISVDRYIAIAQAMRAHTWREKRLLYSKMVCFTIWVLAAALCIPEILYSQIKEESGIAICTMVYPSDESTKLKSAVLTLKVILGFFLPFVVMACCYTIIIHTLIQAKKSSKHKALKVTITVLTVFVLSQFPYNCILLVQTIDAYAMFISNCAVATNIDICFQVTQTIAFFHSCLNPVLYVFVGERFRRDLVKTLKNLGCISQAQWVSFTRREGSLKLSSMLLETTSGALSL
// result condition not met

// query Is ratio to parent for C-C chemokine receptor 9 (CCR9), wild type K40A (protein) MTPTDFTSPIPNMADDYGSESTSSMEDYVNFNFTDFYCEANNVRQFASHFLPPLYWLVFIVGALGNSLVILVYWYCTRVKTMTDMFLLNLAIADLLFLVTLPFWAIAAADQWKFQTFMCKVVNSMYKMNFYSCVLLIMCISVDRYIAIAQAMRAHTWREKRLLYSKMVCFTIWVLAAALCIPEILYSQIKEESGIAICTMVYPSDESTKLKSAVLTLKVILGFFLPFVVMACCYTIIIHTLIQAKKSSKHKALKVTITVLTVFVLSQFPYNCILLVQTIDAYAMFISNCAVSTNIDICFQVTQTIAFFHSCLNPVLYVFVGERFRRDLVKTLKNLGCISQAQWVSFTRREGSLKLSSMLLETTSGALSL at or above 0.8?
// result condition met

// query Entry C-C chemokine receptor 9 (CCR9), wild type K211A (protein) MTPTDFTSPIPNMADDYGSESTSSMEDYVNFNFTDFYCEKNNVRQFASHFLPPLYWLVFIVGALGNSLVILVYWYCTRVKTMTDMFLLNLAIADLLFLVTLPFWAIAAADQWKFQTFMCKVVNSMYKMNFYSCVLLIMCISVDRYIAIAQAMRAHTWREKRLLYSKMVCFTIWVLAAALCIPEILYSQIKEESGIAICTMVYPSDESTKLASAVLTLKVILGFFLPFVVMACCYTIIIHTLIQAKKSSKHKALKVTITVLTVFVLSQFPYNCILLVQTIDAYAMFISNCAVSTNIDICFQVTQTIAFFHSCLNPVLYVFVGERFRRDLVKTLKNLGCISQAQWVSFTRREGSLKLSSMLLETTSGALSL : is its ratio to parent no less than 0.8?
// result condition met

// query Hello, I need to know if C-C chemokine receptor 9 (CCR9), wild type Y202A (protein) MTPTDFTSPIPNMADDYGSESTSSMEDYVNFNFTDFYCEKNNVRQFASHFLPPLYWLVFIVGALGNSLVILVYWYCTRVKTMTDMFLLNLAIADLLFLVTLPFWAIAAADQWKFQTFMCKVVNSMYKMNFYSCVLLIMCISVDRYIAIAQAMRAHTWREKRLLYSKMVCFTIWVLAAALCIPEILYSQIKEESGIAICTMVAPSDESTKLKSAVLTLKVILGFFLPFVVMACCYTIIIHTLIQAKKSSKHKALKVTITVLTVFVLSQFPYNCILLVQTIDAYAMFISNCAVSTNIDICFQVTQTIAFFHSCLNPVLYVFVGERFRRDLVKTLKNLGCISQAQWVSFTRREGSLKLSSMLLETTSGALSL has measured ratio to parent not below 0.8. Thanks!
// result condition not met
